- Test system: A375 Sensitive cells
- ASSAY PROCEDURE: Viability test, trypan blue exclusion, A375 Sensitive cells
- Assay type: cell-based, human
- CONDITION NOTES: Homo sapiens, A-375; 5 μM, 48 h; viable cells as percentage of DMSO control; read-out: Viab A375 5 μM/ 48 h
Threshold check on viability at 5 µM: strictly below 30% is condition met; on or above 30% is condition not met.

Incoming: Could you please tell me whether viability at 5 µM recorded for Nc1nc(Nc2ccccc2SSc2ccccc2Nc2nc(N)nc(-c3c(Cl)cccc3Cl)n2)nc(-c2c(Cl)cccc2Cl)n1 [MTF 455] is less than 30%?
Outgoing: condition not met

Incoming: Could you please tell me whether viability at 5 µM recorded for N=C(NC(=N)c1cccc(Br)c1)Nc1nc(-c2ccccc2)cs1 [MTF 256] is less than 30%?
Outgoing: condition not met

Incoming: Could you please tell me whether viability at 5 µM recorded for N=C(NC(=N)c1ccccc1)Nc1nc2ccccc2s1 [MTF 248] is less than 30%?
Outgoing: condition not met

Incoming: Could you please tell me whether viability at 5 µM recorded for N=C(NC(=N)c1cccc(Cl)c1)Nc1nc(-c2ccccc2)cs1 [MTF 267] is less than 30%?
Outgoing: condition not met

Incoming: Could you please tell me whether viability at 5 µM recorded for COc1cc(C(=N)NC(=N)Nc2nc3ccccc3s2)cc(OC)c1OC [MTF 382] is less than 30%?
Outgoing: condition met

Incoming: Could you please tell me whether viability at 5 µM recorded for N=C(NC(=N)c1ccccn1)Nc1nc(-c2cccc([N+](=O)[O-])c2)cs1 [MTF 259] is less than 30%?
Outgoing: condition not met

Incoming: Could you please tell me whether viability at 5 µM recorded for Nc1nc(Nc2ccccc2SSc2ccccc2Nc2nc(N)nc(-c3ccncc3)n2)nc(-c2ccncc2)n1 [MTF 329] is less than 30%?
Outgoing: condition not met

Incoming: Could you please tell me whether viability at 5 µM recorded for Nc1nc(Nc2cc([N+](=O)[O-])ccc2O)nc(C(Cl)(Cl)Cl)n1 [MTF 377] is less than 30%?
Outgoing: condition not met

Incoming: Could you please tell me whether viability at 5 µM recorded for N=C(NC(=N)c1ccc([N+](=O)[O-])cc1)Nc1nc2ccccc2s1 [MTF 398] is less than 30%?
Outgoing: condition not met

Incoming: Could you please tell me whether viability at 5 µM recorded for CC(=O)c1cccc(C(=N)NC(=N)Nc2nc3ccccc3s2)c1 [MTF 255] is less than 30%?
Outgoing: condition met

Incoming: Could you please tell me whether viability at 5 µM recorded for Cc1nc(NC(=N)NC(=N)c2ccccc2)sc1C [MTF 303] is less than 30%?
Outgoing: condition not met

Incoming: Could you please tell me whether viability at 5 µM recorded for Nc1nc(Nc2ccc([N+](=O)[O-])cc2O)nc(C(Cl)(Cl)Cl)n1 [MTF 376] is less than 30%?
Outgoing: condition not met

Incoming: Could you please tell me whether viability at 5 µM recorded for Cc1nc(NC(=N)NC(=N)c2ccccc2Br)sc1C [MTF 295] is less than 30%?
Outgoing: condition not met

Incoming: Could you please tell me whether viability at 5 µM recorded for Nc1nc(Nc2ccccc2SSc2ccccc2Nc2nc(N)nc(-c3cnccn3)n2)nc(-c2cnccn2)n1 [MTF 348] is less than 30%?
Outgoing: condition not met

Incoming: Could you please tell me whether viability at 5 µM recorded for CC(=O)c1cccc(-c2nc(N)nc(Nc3ccccc3SSc3ccccc3Nc3nc(N)nc(-c4cccc(C(C)=O)c4)n3)n2)c1 [MTF 462] is less than 30%?
Outgoing: condition not met

Incoming: Could you please tell me whether viability at 5 µM recorded for Nc1nc(Nc2ccccc2SSc2ccccc2Nc2nc(N)nc(-c3cccc(F)c3)n2)nc(-c2cccc(F)c2)n1 [MTF 320] is less than 30%?
Outgoing: condition met

Incoming: Could you please tell me whether viability at 5 µM recorded for N=C(NC(=N)c1ccccc1F)Nc1nc2ccccc2s1 [MTF 249] is less than 30%?
Outgoing: condition met

Incoming: Could you please tell me whether viability at 5 µM recorded for N=C(NC(=N)c1ccnc(Br)c1)Nc1nc2ccccc2s1 [MTF 386] is less than 30%?
Outgoing: condition met

Incoming: Could you please tell me whether viability at 5 µM recorded for Nc1nc(Nc2ccccc2SSc2ccccc2Nc2nc(N)nc(-c3cccc(Cl)c3)n2)nc(-c2cccc(Cl)c2)n1 [MTF 322] is less than 30%?
Outgoing: condition met

Incoming: Could you please tell me whether viability at 5 µM recorded for N=C(NC(=N)c1ccccn1)Nc1nc2ccccc2s1 [MTF 251] is less than 30%?
Outgoing: condition not met

Incoming: Could you please tell me whether viability at 5 µM recorded for Nc1nc(Nc2ccccc2SSc2ccccc2Nc2nc(N)nc(-c3cccc(Br)c3)n2)nc(-c2cccc(Br)c2)n1 [MTF 323] is less than 30%?
Outgoing: condition met

Incoming: Could you please tell me whether viability at 5 µM recorded for COc1ccc(-c2nc(N)nc(Nc3ccccc3SSc3ccccc3Nc3nc(N)nc(-c4ccc(OC)cc4)n3)n2)cc1 [MTF 324] is less than 30%?
Outgoing: condition met

Incoming: Could you please tell me whether viability at 5 µM recorded for N=C(NC(=N)c1cccs1)Nc1nc2ccccc2s1 [MTF 381] is less than 30%?
Outgoing: condition not met

Incoming: Could you please tell me whether viability at 5 µM recorded for CCOc1cccc(C(=N)NC(=N)Nc2nc3ccccc3s2)c1 [MTF 344] is less than 30%?
Outgoing: condition met

Incoming: Could you please tell me whether viability at 5 µM recorded for N=C(NC(=N)c1ccccc1Cl)Nc1nc(-c2cccc([N+](=O)[O-])c2)cs1 [MTF 276] is less than 30%?
Outgoing: condition not met

Incoming: Could you please tell me whether viability at 5 µM recorded for N=C(NC(=N)c1cccnc1)Nc1nc(-c2ccccc2)cs1 [MTF 273] is less than 30%?
Outgoing: condition not met

Incoming: Could you please tell me whether viability at 5 µM recorded for Cc1csc(NC(=N)NC(=N)c2ccccc2)n1 [MTF 283] is less than 30%?
Outgoing: condition not met

Incoming: Could you please tell me whether viability at 5 µM recorded for Nc1nc(Nc2ccccc2SSc2ccccc2Nc2nc(N)nc(C(Cl)(Cl)Cl)n2)nc(C(Cl)(Cl)Cl)n1 [CRO15] is less than 30%?
Outgoing: condition met

Incoming: Could you please tell me whether viability at 5 µM recorded for N=C(NC(=N)c1cccc(Cl)c1)Nc1nc(-c2cccc([N+](=O)[O-])c2)cs1 [MTF 277] is less than 30%?
Outgoing: condition not met

Incoming: Could you please tell me whether viability at 5 µM recorded for N=C(NC(=N)c1ccc(Cl)cc1)Nc1nc2ccccc2s1 [MTF 245] is less than 30%?
Outgoing: condition not met

Incoming: Could you please tell me whether viability at 5 µM recorded for N=C(NC(=N)c1cccc(Br)c1)Nc1nc(-c2cccc([N+](=O)[O-])c2)cs1 [MTF 257] is less than 30%?
Outgoing: condition not met

Incoming: Could you please tell me whether viability at 5 µM recorded for N=C(NC(=N)c1ccccn1)Nc1nc(-c2ccccc2)cs1 [MTF 263] is less than 30%?
Outgoing: condition not met

Incoming: Could you please tell me whether viability at 5 µM recorded for N=C(NC(=N)c1ccc(Cl)cc1)Nc1nc(-c2cccc([N+](=O)[O-])c2)cs1 [MTF 281] is less than 30%?
Outgoing: condition not met

Incoming: Could you please tell me whether viability at 5 µM recorded for N=C(NC(=N)c1ccncc1)Nc1nc(-c2ccccc2)cs1 [MTF 274] is less than 30%?
Outgoing: condition not met
